test system: UACC-62 melanoma; assay: NCI tumour cell line growth inhibition, 48 h
Recorded metric: TGI

* CC1CCC(C(C)(C)c2ccccc2)C(=O)C1 (stereo not given) | > 100 µM
* C=C1CCCCCCCCC/C=C/1SCCCSC | > 100 µM
* Cc1[nH]n(-c2nc(O)c(-c3ccccc3)c(=O)[nH]2)c(=O)c1CCO | > 100 µM
* Oc1ccc(Oc2cnc3ccccc3n2)cc1 | > 100 µM
* CC(Cl)CN1c2ccccc2Sc2ccc(Cl)cc21 (stereo not given) | > 10 µM

* * *

tested on: HOP-62 NSCLC; assay: NCI tumour cell line growth inhibition, 48 h
Recorded metric: TGI

* CC1(C)OP(=O)(O)C=C1Sc1ccc([N+](=O)[O-])cc1[N+](=O)[O-] | > 100 µM
* O=C(N/N=C/c1ccc(O)cc1O)c1cccnc1 | > 100 µM
* C=C1CCCCCCCCC/C=C/1SCCCSC | > 100 µM
* COc1ccc2c(c1)C(C)Cc1c(ncnc1-n1cnc3ccccc31)N2C (configuration not stated) | 25 µM
* O=C1c2ccccc2C(=O)c2c(NCCN=Cc3ccccc3O)cccc21 | 52.3 µM
* N[C@H](Cc1ccc2oc3cc(=O)c4ccccc4c-3nc2c1)C(=O)O | > 100 µM
* O=c1[nH]nc(Cc2ccc(Cl)cc2)n1/N=C/c1cccs1 | 55.2 µM
* Nc1nc(SCc2ccccc2Cl)c2[nH]cnc2n1 | > 100 µM
* CCCCCCCCCCCC(=O)OC[C@@H](C[As](=O)(O)O)OC(=O)CCCCCCCCCCC | 28.8 µM
* CSc1ccc2c(cc1=O)[C@@H](NC(=O)c1cc(O)c(O)c(O)c1)CCc1cc(O)c(O)c(O)c1-2 | > 100 µM
* CCc1cccc(C)c1NC(=O)CC1C(=O)Nc2ccccc2S1=O (configuration not stated) | > 100 µM
* CC(=O)O[C@@]12CO[C@@H]1CC(O)[C@@]1(C)C(=O)[C@H](O)C3=C(C)C(O)C[C@@](O)(C(OC(=O)c4ccccc4)C12)C3(C)C (some centres not stated) | > 100 µM
* Cc1ccc(C)c(N2C(=O)C(=O)C(c3nc4ccccc4o3)/C(=N/N)C2=O)c1 (configuration not stated) | > 100 µM
* O=C1C=C(Nc2ccc(S(=O)(=O)Nc3nccs3)cc2)c2ccccc2C1=O | 29.7 µM
* NC(=O)CNc1ccc([As]=[As]c2ccc(NCC(N)=O)cc2)cc1 (configuration not stated) | 14.6 µM
* COc1cc2c(cc1OC)C1Cc3cc(OC)c(OC)cc3N1CC2 (configuration not stated) | 84.9 µM
* O=c1[nH]c2nc3ccccc3c(=O)n2/c1=C/c1cccs1 | > 100 µM
* Cc1sc2c(c1C)C(c1ccc(Cl)cc1)=N[C@@H](CC(=O)Nc1ccc(OCCOCCOCCOCCNc3cccc4c3C(=O)N(C3CCC(=O)NC3=O)C4=O)cc1)c1nnc(C)n1-2 (some centres not stated) | > 100 µM
* CC12CCC(=O)N1c1cccnc1N2 (configuration not stated) | > 100 µM
* COc1ccc2nc(-c3ccccc3)c(=O)[nH]c2c1 | > 100 µM
* COC(=O)N[C@H](C(=O)NC(OCc1ccccc1)C1COC(C)(C)O1)C(C)O[Si](C)(C)C(C)(C)C (some centres not stated) | > 100 µM
* CC1COS(=O)O1 (configuration not stated) | > 100 µM
* Clc1nc(Cl)c2ncn(Cc3ccccc3Cn3cnc4c(Cl)nc(Cl)nc43)c2n1 | 19.3 µM
* C/C=C\C(CC(=O)NCC(=O)c1c[nH]c2ccccc12)CC(=O)OC (configuration not stated) | > 100 µM
* O=C1/C(=C/N2N=C(c3ccc4ccccc4c3)CC2c2ccccc2O)SC(=S)N1c1cccnc1 (configuration not stated) | > 100 µM
* Oc1ccc(Oc2cnc3ccccc3n2)cc1 | > 100 µM
* COc1ccc(-c2nn(-c3cccc(Cl)c3)cc2-c2nc(N)[nH]c(=O)c2C#N)cc1 | 26.2 µM
* COC(=O)C(=O)CC(=O)c1cccc(OC)c1 | > 100 µM
* COc1ccc(/C(Cl)=C(\C#N)c2ccc(OC)c(OC)c2)cc1OC | > 100 µM
* CNC(C)[C@H]1CCC2C3CC=C4C(=O)[C@@H](NC(=O)C=C(C)C)CC[C@]4(C)C3CC[C@@]21C (some centres not stated) | 3.63 µM
* Cc1cc(NCCCCNc2ccnc3cc(Cl)ccc23)nc(Nc2ccc(C(=O)N3CCCCC3)cc2)n1 | 4.2 µM
* Cc1ccc(N2C(=O)N(c3ccc(C)cc3)C3(SC=NN3C)C2=O)cc1 (configuration not stated) | > 100 µM

Values compiled from PubChem BioAssay (NCI).
